Where do the numbers come from? From paper PMC4102551.

System: S. aureus ATCC 25923
Assay: Broth microdilution assay, S. aureus
Assay type: cell-based, Staphylococcus aureus
Details: 50 µM, 24 h, inhibition of growth, mean ± SD
Inhibitory effect (%) S. aureus ATCC 25923 for assorted compounds
assay_endpoint: Inhibitory effect (%) S. aureus ATCC 25923

compound: C=C(C)[C@@H]1CC[C@]2(C#N)CC[C@]3(C)[C@H](CC[C@@H]4[C@@]5(C)CCC(=NOC(C)=O)C(C)(C)[C@@H]5CC[C@]43C)[C@@H]12
result_unit: %
quantitative_result: 5.5
--
compound: CC(=O)OCC12CCC3(C(C)C)C1=C1C(CC4C5(C)CCC(OC(C)=O)C(C)(C)C5CCC4(C)C1(C)CC2)n1c(=O)n(-c2cccc(Cl)c2)c(=O)n13 (stereo not drawn)
result_unit: %
quantitative_result: 5.7
--
compound: C=C(C)[C@@H]1CC[C@]2(C=NO)CC[C@]3(C)[C@H](CC[C@@H]4[C@@]5(C)CCC(=NO)C(C)(C)[C@@H]5CC[C@]43C)[C@@H]12
result_unit: %
quantitative_result: 5.1
--
compound: C=C(C)[C@@H]1CC[C@]2(C(=O)O)CC[C@]3(C)C(CCC4[C@@]5(C)CCC(=O)C(C)(C)C5CC[C@]43C)C12 (stereo partly drawn)
result_unit: %
quantitative_result: 51.1
--
compound: CC(C)C12CCC3(COC(=O)c4ccccc4)CCC4(C)C(=C31)C(CC1C3(C)CCC(OC(=O)c5ccccc5)C(C)(C)C3CCC14C)n1c(=O)n(C)c(=O)n12 (stereo not drawn)
result_unit: %
quantitative_result: 15.1
--
compound: C=C(C)C1CCC2(COC(C)=O)CCC3(C)C(CCC4C5(C)CCC(=O)C(C)(C)C5CCC43C)C12 (stereo not drawn)
result_unit: %
quantitative_result: 0.7

* * *

inhibition at 50 µM for assorted compounds
System: C. albicans ATCC 90028
Experiment: Broth microdilution assay, C. albicans
Type: cell-based, Candida albicans
Details: Candida albicans, ATCC90028, 48 h; read-out: Inhibitory effect (%) C. albicans ATCC 90028

compound: C=C(C)[C@@H]1CC[C@]2(C(=O)O)CC[C@]3(C)[C@H](CC[C@@H]4[C@@]5(C)CC[C@H](O)C(C)(C)[C@@H]5CC[C@]43C)[C@@H]12
inhibition at 50 µM / %: 21.6

compound: C=C(C)[C@@H]1CC[C@]2(C(=O)O)CC[C@]3(C)C(CCC4[C@@]5(C)CCC(=O)C(C)(C)C5CC[C@]43C)C12 (stereo partly shown)
inhibition at 50 µM / %: 25.2

compound: C=C(C)[C@@H]1CC[C@]2(CO)CC[C@]3(C)[C@H](CC[C@@H]4[C@@]5(C)CC[C@H](O)C(C)(C)[C@@H]5CC[C@]43C)[C@@H]12
inhibition at 50 µM / %: -27.5

compound: CC(C)[C@@H]1CC[C@]2(C(=O)O)CC[C@]3(C)[C@H](CC[C@@H]4[C@@]5(C)CCC(=O)C(C)(C)[C@@H]5CC[C@]43C)[C@@H]12 [Compound 24, dihydrobetulonic acid]
inhibition at 50 µM / %: 54.9

compound: C=C(C)C1CCC2(C=NO)CCC3(C)C(CCC4C5(C)CCC(O)C(C)(C)C5CCC43C)C12 (stereo not shown)
inhibition at 50 µM / %: -73.5

compound: C=C(C)[C@@H]1CC[C@]2(COC(=O)COc3cc(C(C)C)ccc3C)CC[C@]3(C)[C@H](CC[C@@H]4[C@@]5(C)CC[C@H](O)C(C)(C)[C@@H]5CC[C@]43C)[C@@H]12 [Compound 4, betulinyl 28-carboxymethoxycarvacrolate]
inhibition at 50 µM / %: 31.4

compound: CC(=O)OCC12CCC3(C(C)C)C1=C1C(CC4C5(C)CCC(OC(C)=O)C(C)(C)C5CCC4(C)C1(C)CC2)n1c(=O)n(-c2cccc([N+](=O)[O-])c2)c(=O)n13 (stereo not shown)
inhibition at 50 µM / %: -13.8

compound: C=C(C)[C@@H]1CC[C@]2(C=O)CC[C@]3(C)C(CCC4[C@@]5(C)CC[C@H](O)C(C)(C)C5CC[C@]43C)C12 (stereo partly shown)
inhibition at 50 µM / %: 6.9

compound: CC(=O)OCC12CCC3(C(C)C)C1=C1C(CC4C5(C)CCC(OC(C)=O)C(C)(C)C5CCC4(C)C1(C)CC2)n1c(=O)n(-c2ccc4c(c2)OCO4)c(=O)n13 (stereo not shown)
inhibition at 50 µM / %: 4.4

compound: CCn1c(=O)n2n(c1=O)C1(C(C)C)CCC3(COC(C)=O)CCC4(C)C(=C31)C2CC1C2(C)CCC(OC(C)=O)C(C)(C)C2CCC14C (stereo not shown)
inhibition at 50 µM / %: -9.7
